The values you see were collected from paper PMC3658274.

# Tested on: HL60
# assay-summary: cells
# Set-up: Cell viability, Alamar Blue fluorescence
# test-settings: Homo sapiens, HL-60, 72 h
experimental-readout: pIC50
Answers are plain numbers, as −log10 of the molar value.

Ask: Fill in the blank: the reported pIC50 of Clc1ccc(CCC(Cn2ccnc2)Sc2c(Cl)cccc2Cl)cc1 (centres unmarked) is ____.
Reply: 5.41

* * *

# measurement-target: PPARγ (peroxisome proliferator-activated receptor subtype-γ) (Homo sapiens)
# Sequence (P37231 whole entry): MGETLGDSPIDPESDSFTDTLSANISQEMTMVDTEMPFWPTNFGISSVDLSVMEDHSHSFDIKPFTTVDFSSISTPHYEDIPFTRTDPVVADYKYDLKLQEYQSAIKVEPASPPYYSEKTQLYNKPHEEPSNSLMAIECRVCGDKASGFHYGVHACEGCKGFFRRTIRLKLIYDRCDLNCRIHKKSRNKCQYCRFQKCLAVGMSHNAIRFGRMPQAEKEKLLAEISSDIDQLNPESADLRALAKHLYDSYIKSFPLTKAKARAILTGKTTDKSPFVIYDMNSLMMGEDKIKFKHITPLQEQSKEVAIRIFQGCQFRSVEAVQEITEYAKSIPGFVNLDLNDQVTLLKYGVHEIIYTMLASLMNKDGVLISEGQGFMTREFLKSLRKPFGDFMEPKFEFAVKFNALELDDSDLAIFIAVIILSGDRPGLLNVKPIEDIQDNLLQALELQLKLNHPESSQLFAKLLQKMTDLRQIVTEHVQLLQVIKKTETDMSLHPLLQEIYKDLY
# assay-summary: in vitro binding assay (Cerep, agonist, ref. […]), Ki from IC50 by Cheng-Prusoff
experimental-readout: Ki (µM)
One number for each entry, in µM.

Ask: # returns recorded Ki (system: PPARγ (peroxisome proliferator-activated receptor subtype-γ) (Homo sapiens)) for CCCOc1ccccc1-c1nc2nn[nH]c2c(=O)[nH]1
Reply: 14
